This listing pairs molecules with measured Activity.
test system: HT-29; experiment: Cytotoxicity against human HT-29 cells at 10 uM after 48 hrs; assay type: functional
parameter.measured: Activity (%)

C[C@@H]1CC[C@]2(C(=O)O)CC[C@]34C[C@]3(C=C[C@@H]3[C@@]5(C)CC[C@H](O)C(C)(C)[C@@H]5CC[C@]34C)[C@@H]2[C@]1(C)O [EUSCAPHIC ACID A] = 87
C[C@H]1[C@H](C)CC[C@]2(C(=O)O)CC[C@]34C[C@]3(C=C[C@@H]3[C@@]5(C)C[C@@H](O)[C@H](O)C(C)(C)[C@@H]5CC[C@]34C)[C@H]12 [EUSCAPHIC ACID E] = 86
C=C1[C@H](C)CC[C@]2(C(=O)O)CC[C@]34C[C@]3(C=C[C@@H]3[C@@]5(C)C[C@@H](O)[C@H](O)C(C)(C)[C@@H]5CC[C@]34C)[C@H]12 [EUSCAPHIC ACID F] = 87
C[C@@H]1CC[C@]2(C(=O)O)CC[C@]34C[C@]3(C=C[C@@H]3[C@@]5(C)C[C@@H](O)[C@H](O)C(C)(C)[C@@H]5CC[C@]34C)[C@@H]2[C@]1(C)O [EUSCAPHIC ACID D] = 13
C[C@@H]1CC[C@]2(C(=O)O)CC[C@]34C[C@]3(C=C[C@@H]3[C@@]5(C)C[C@@H](O)[C@@H](O)C(C)(C)[C@@H]5CC[C@]34C)[C@@H]2[C@]1(C)O [EUSCAPHIC ACID C] = 1
C[C@H]1[C@H](C)CC[C@]2(C(=O)O)CC[C@]3(C)C(=CC[C@@H]4[C@@]5(C)C[C@@H](O)[C@H](O)C(C)(C)[C@@H]5CC[C@]43C)[C@H]12 [COROSOLIC ACID] = 68
C[C@@H]1CC[C@]2(C(=O)O)CC[C@]3(C)C(=CC[C@@H]4[C@@]5(C)C[C@H](O)[C@H](O)C(C)(C)[C@@H]5CC[C@]43C)[C@@H]2[C@]1(C)O = 74
C[C@@H]1CC[C@]2(C(=O)O)CC[C@]3(C)C(=CC[C@@H]4[C@@]5(C)CC[C@H](O)[C@](C)(CO)[C@@H]5CC[C@]43C)[C@@H]2[C@]1(C)O [ROTUNGENIC ACID] = 91
C[C@@H]1CC[C@]2(C(=O)O)CC[C@]3(C)C(=CC[C@@H]4[C@@]5(C)CC[C@H](O)[C@@](C)(CO)[C@@H]5CC[C@]43C)[C@@H]2[C@]1(C)O [ROTUNDIC ACID] = 101
C[C@@H]1CC[C@]2(C(=O)O)CC[C@]3(C)C(=CC[C@@H]4[C@@]5(C)C[C@@H](O)[C@@H](O)C(C)(C)[C@@H]5CC[C@]43C)[C@@H]2[C@]1(C)O [EUSCAPHIC ACID] = 85
C[C@@H]1CC[C@]2(C(=O)O)CC[C@]3(C)C(=CC[C@@H]4[C@@]5(C)C[C@@H](O)[C@H](O)C(C)(C)[C@@H]5CC[C@]43C)[C@@H]2[C@]1(C)O [TOMENTIC ACID] = 86
C[C@@H]1CC[C@]2(C(=O)O)CC[C@]34C[C@]3(C=C[C@@H]3[C@@]5(C)CC[C@H](O)[C@@](C)(CO)[C@@H]5CC[C@]34C)[C@@H]2[C@]1(C)O [EUSCAPHIC ACID B] = 93
C[C@@H]1CC[C@]2(C(=O)O)CC[C@]3(C)C(=CC[C@@H]4[C@@]5(C)CC[C@H](O)C(C)(C)[C@@H]5CC[C@]43C)[C@@H]2[C@]1(C)O [POMOLIC ACID] = 91
C[C@@H]1CC[C@]2(C(=O)O)CC[C@]3(C)C(=CC[C@@H]4[C@@]5(C)CC[C@H](O)[C@@](C)(C=O)[C@@H]5CC[C@]43C)[C@@H]2[C@]1(C)O = 91
